Source listed as ChEMBL document CHEMBL1139191.

Tested target: 11-beta-hydroxysteroid dehydrogenase 1 (Homo sapiens, UniProt P28845)
Sequence (P28845 whole entry): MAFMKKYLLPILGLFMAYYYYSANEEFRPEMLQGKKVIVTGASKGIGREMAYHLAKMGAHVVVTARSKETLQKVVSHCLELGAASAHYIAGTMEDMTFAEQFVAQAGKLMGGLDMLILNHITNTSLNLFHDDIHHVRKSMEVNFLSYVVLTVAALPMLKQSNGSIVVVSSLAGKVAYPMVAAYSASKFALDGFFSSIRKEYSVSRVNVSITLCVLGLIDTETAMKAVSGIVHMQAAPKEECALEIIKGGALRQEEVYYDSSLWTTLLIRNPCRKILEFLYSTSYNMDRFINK
Assay text: Inhibition of human 11beta-HSD1 expressed in HEK293 cells after 2 hrs by scintillation proximity assay
Property measured: IC50 (nM)

Here's what some known entries look like.
{"columns": ["Compound", "Tested target", "IC50, nM"],
 "data": [
  ["Cc1ccc(C23CC4CC(CC(C(=O)N5CCN(S(=O)(=O)Cc6ccccc6)CC5)(C4)C2)C3)cc1", "11-beta-hydroxysteroid dehydrogenase 1 (Homo sapiens, UniProt P28845)", 7700],
  ["O=C(N1CCCc2ccccc21)C12CC3CC(CC(C3)C1)C2", "11-beta-hydroxysteroid dehydrogenase 1 (Homo sapiens, UniProt P28845)", 1860]
]}

I. Cc1ccc(C23CC4CC(CC(C(=O)N5CCN(CCO)CC5)(C4)C2)C3)cc1
II. O=C(N1CCN(Cc2ccncc2)CC1)C12CC3CC(CC(C3)C1)C2
III. O=C(N1CCC2CCCCC2C1)C12CC3CC(CC(C3)C1)C2 (stereo not given)
Prompt line: Order the records so the highest IC50 appears first and the lowest last. Enter labels, ranked according to the request.
Response line: II, III, I

###

Tested target: UniProtKB P80365
Sequence (whole entry): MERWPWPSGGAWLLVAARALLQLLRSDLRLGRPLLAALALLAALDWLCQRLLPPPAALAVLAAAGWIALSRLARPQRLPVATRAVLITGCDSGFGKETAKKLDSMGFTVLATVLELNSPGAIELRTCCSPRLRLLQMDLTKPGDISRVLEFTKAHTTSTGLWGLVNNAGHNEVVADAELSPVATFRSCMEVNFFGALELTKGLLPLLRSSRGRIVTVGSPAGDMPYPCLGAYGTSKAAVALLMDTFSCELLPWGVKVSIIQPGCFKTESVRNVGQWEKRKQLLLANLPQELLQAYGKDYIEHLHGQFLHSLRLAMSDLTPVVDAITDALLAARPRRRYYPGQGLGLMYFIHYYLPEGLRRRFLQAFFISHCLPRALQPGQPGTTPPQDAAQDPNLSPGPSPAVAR
Assay text: Inhibition of human 11beta-HSD2 at 10 uM by scintillation proximity assay
Property measured: inhibition (%)

Example compounds with recorded inhibition:
{"columns": ["Smiles structure", "Units", "inhibition"],
 "data": [
  ["O=C(N1CCN(S(=O)(=O)c2ccccc2)CC1)C12CC3CC(CC(C3)C1)C2", "%", 35],
  ["CCN1CCN(C(=O)CC2CCCCC2)CC1", "%", 40],
  ["CCN1CCN(C(=O)C23CC4CC(C2)CC(c2ccc(OC)cc2)(C4)C3)CC1", "%", 51],
  ["CCN1CCN(C(=O)C2CCCCC2)CC1", "%", 0],
  ["CCN1CCN(C(=O)CCC2CCCCC2)CC1", "%", 0]
]}

1. CCN1CCN(C(=O)C2(c3ccc(F)cc3)CCCC2)CC1
2. Cc1ccc(C23CC4CC(CC(C(=O)N5CCN(Cc6ccccc6)CC5)(C4)C2)C3)cc1
Prompt line: Hi, I'm comparing 1 with 2 and wondering which one has the bigger number for inhibition. Any idea? Respond with the label that goes with your answer.
Response line: 2
(2: 80%, 1: 0%)

###

Tested target: 11-beta-hydroxysteroid dehydrogenase 1 (Homo sapiens, UniProt P28845)
Assay text: Inhibition of human 11beta-HSD1 expressed in HEK293 cells after 2 hrs by scintillation proximity assay
pIC50: −log10 of the molar value.
Property measured: pIC50

A. Cc1ccc(C23CC4CC(CC(C(=O)N5CCN(c6ccccc6)CC5)(C4)C2)C3)cc1
B. CCN1CCN(C(=O)C2CCC(C(C)(C)C)CC2)CC1 (stereo not drawn)
C. CCN1CCN(C(=O)CCC2CCCCC2)CC1
Prompt line: Put these in order: smallest pIC50 first, largest last. The response must list the labels following the requested ordering.
Response line: C, B, A
(C: 4.32, B: 4.70, A: 5.14)

###

Tested target: 11-beta-hydroxysteroid dehydrogenase 1 (Homo sapiens)
Assay text: Inhibition of human 11beta-HSD1 expressed in HEK293 cells after 2 hrs by scintillation proximity assay
Property measured: IC50 (µM)

Worked cases, answers included:
{"columns": ["Compound", "Numeric result"],
 "data": [
  ["N#CC(c1ccccc1)N1CCN(C(=O)C23CC4CC(CC(C4)C2)C3)CC1 (stereo not given)", 24],
  ["CC(C)C(C#N)N1CCN(C(=O)C23CC4CC(CC(C4)C2)C3)CC1 (stereo not given)", 20]
]}

1. O=C(N1CCCCC1)C12CC3CC(CC(O)(C3)C1)C2
2. Cc1ccc(C23CC4CC(CC(C(=O)N5CCN(C(C#N)c6ccccc6)CC5)(C4)C2)C3)cc1 (stereo not given)
Prompt line: Between the two listed entries 1 and 2 , which has its IC50 at the higher number? // respond with label for picked entry
Response line: 1

###

Tested target: 11-beta-hydroxysteroid dehydrogenase 1 (Homo sapiens)
Assay text: Inhibition of human 11beta-HSD1 expressed in HEK293 cells after 2 hrs by scintillation proximity assay
pIC50: −log10 of the molar value.
Property measured: pIC50

{"columns": ["Molecule", "Numeric result"],
 "data": [
  ["O=C(N1CCN(S(=O)(=O)Cc2ccccc2)CC1)C12CC3CC(CC(C3)C1)C2", 4.89]
]}

a. CCN1CCN(C(=O)C2CCCCC2)CC1
b. CCN1CCN(C(=O)C23CC4CC(CC(Cc5ccccc5)(C4)C2)C3)CC1
c. O=C(N1CCCC1)C12CC3CC(CC(C3)C1)C2
d. COCCN1CCN(C(=O)C23CC4CC(CC(C4)C2)C3)CC1
e. O=C(C1C2CC3CC(C2)CC1C3)N1CCCCC1 (configuration not stated)
Prompt line: Descending sort on pIC50 required. Kindly provide the labels arranged according to the requested ordering.
Response line: e, c, b, d, a
(e: 6.70, c: 6.30, b: 6.00, d: 4.92, a: 4.28)

###

Tested target: 11-beta-hydroxysteroid dehydrogenase 1 (Homo sapiens)
Assay text: Inhibition of human 11beta-HSD1 expressed in HEK293 cells after 2 hrs by scintillation proximity assay
pIC50: −log10 of the molar value.
Property measured: pIC50

P. CCN1CCN(C(=O)CC23CC4CC(CC(C4)C2)C3)CC1
Q. O=C(N1CCNCC1)C12CC3CC(CC(C3)C1)C2
R. CCN1CCN(C(=O)C23CC4CC(CC(C4)C2)C3)CC1
S. O=C(N1CCCCC1)C12CC3CC(CC(C3)C1)C2
Prompt line: Rank the listed compounds according to pIC50, from the largest value downward. Write the labels out in the order the request specifies.
Response line: S, R, P, Q
(S: 6.71, R: 6.12, P: 5.39, Q: 5.09)

###

Tested target: 11-beta-hydroxysteroid dehydrogenase type 2 (Homo sapiens)
Assay text: Inhibition of human 11beta-HSD2 at 10 uM by scintillation proximity assay
Property measured: inhibition (%)

{"columns": ["Molecule", "Tested target", "Property measured", "Units", "Numeric result"],
 "data": [
  ["O=C(N1CCN(Cc2ccncc2)CC1)C12CC3CC(CC(C3)C1)C2", "11-beta-hydroxysteroid dehydrogenase type 2 (Homo sapiens)", "inhibition", "%", 0],
  ["CC(C)C(C#N)N1CCN(C(=O)C23CC4CC(CC(C4)C2)C3)CC1 (stereo unspecified)", "11-beta-hydroxysteroid dehydrogenase type 2 (Homo sapiens)", "inhibition", "%", 45],
  ["O=C(c1ccccc1)N1CCN(C(=O)C23CC4CC(CC(C4)C2)C3)CC1", "11-beta-hydroxysteroid dehydrogenase type 2 (Homo sapiens)", "inhibition", "%", 20],
  ["N#CC(c1ccccc1)N1CCN(C(=O)C23CC4CC(CC(C4)C2)C3)CC1 (stereo unspecified)", "11-beta-hydroxysteroid dehydrogenase type 2 (Homo sapiens)", "inhibition", "%", 39],
  ["CCN1CCN(C(=O)C2CC2)CC1", "11-beta-hydroxysteroid dehydrogenase type 2 (Homo sapiens)", "inhibition", "%", 0]
]}

P. Cc1ccc(C23CC4CC(CC(C(=O)N5CCN(C(C#N)C(C)C)CC5)(C4)C2)C3)cc1 (stereo unspecified)
Q. CCN1CCN(C(=O)C2CCC(C(C)(C)C)CC2)CC1 (stereo unspecified)
R. Cc1ccc(C23CC4CC(CC(C(=O)N5CCN(S(=O)(=O)Cc6ccccc6)CC5)(C4)C2)C3)cc1
S. CN1CCN(C(=O)C23CC4CC(CC(C4)C2)C3)CC1
Prompt line: Order the records by inhibition, with each subsequent value no larger than the one before. Field: ranking. Enter the labels in the order requested.
Response line: P, R, S, Q
(P: 56%, R: 26%, S: 13%, Q: 0%)

1. O=C(N1CCN(c2ccccc2)CC1)C12CC3CC(CC(C3)C1)C2
2. Cc1ccc(C23CC4CC(CC(C(=O)N5CCN(CCc6ccccc6)CC5)(C4)C2)C3)cc1
Prompt line: // compare measured inhibition between 1 and 2 ; output the lower one // caller expects the label of the chosen entry
Response line: 1

###

Tested target: 11-beta-hydroxysteroid dehydrogenase type 2 (Homo sapiens) (UniProt P80365)
Assay text: Inhibition of human 11beta-HSD2 at 10 uM by scintillation proximity assay
Property measured: inhibition (%)

{"columns": ["Compound", "Numeric result"],
 "data": [
  ["CCN1CCN(C(=O)c2ccccc2)CC1", 0],
  ["O=C(N1CCN(Cc2ccccc2)CC1)C12CC3CC(CC(C3)C1)C2", 7],
  ["O=C(C1C2CC3CC(C2)CC1C3)N1CCCCC1 (stereo not drawn)", 39],
  ["Cc1ccc(C23CC4CC(CC(C(=O)N5CCN(CCO)CC5)(C4)C2)C3)cc1", 40],
  ["O=C(N1CCCCC1)C12CC3CC(CC(O)(C3)C1)C2", 9],
  ["CCN1CCN(C(=O)C23CC4CC(CC(C4)C2)C3)CC1", 11]
]}

P. O=C(N1CCCCC1)C12CC3CC(CC(C3)C1)C2
Q. COCCN1CCN(C(=O)C23CC4CC(C2)CC(c2ccc(C)cc2)(C4)C3)CC1
R. COCCN1CCN(C(=O)C23CC4CC(CC(C4)C2)C3)CC1
Prompt line: Given 3 compounds, produce a descending ranking by inhibition. Write the labels, ordered according to the request.
Response line: Q, R, P
(Q: 41%, R: 7%, P: 0%)

a. Cc1ccc(C23CC4CC(CC(C(=O)N5CCN(C)CC5)(C4)C2)C3)cc1
b. O=C(N1CCNCC1)C12CC3CC(CC(C3)C1)C2
Prompt line: Field: lower inhibition | Options: a / b Selection: enter the item's label.
Response line: a
(a: 0%, b: 31%)
